- Target Of Assay: Muscarinic acetylcholine receptor M4 (Homo sapiens) (UniProt P08173)
- Sequence (P08173 whole entry, looked up): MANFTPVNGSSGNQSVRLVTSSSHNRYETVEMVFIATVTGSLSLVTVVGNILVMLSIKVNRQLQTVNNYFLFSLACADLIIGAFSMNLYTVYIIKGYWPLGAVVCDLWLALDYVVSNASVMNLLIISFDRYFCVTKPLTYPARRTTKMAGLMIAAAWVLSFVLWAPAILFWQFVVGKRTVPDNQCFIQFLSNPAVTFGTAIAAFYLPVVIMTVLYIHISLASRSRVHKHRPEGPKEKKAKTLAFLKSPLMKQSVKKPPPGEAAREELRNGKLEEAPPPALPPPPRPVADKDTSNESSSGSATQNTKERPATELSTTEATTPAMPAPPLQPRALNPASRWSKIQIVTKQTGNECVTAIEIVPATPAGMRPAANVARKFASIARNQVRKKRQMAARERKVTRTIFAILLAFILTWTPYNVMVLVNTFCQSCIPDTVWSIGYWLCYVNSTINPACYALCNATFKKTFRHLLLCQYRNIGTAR
- Test: human M4 muscarinic receptor antagonists, primary screen, CHO cells, Fluo-8 calcium fluorescence (AID 624125);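 also: 0% = acetylcholine EC80 with DMSO and 100% = DMSO without agonist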
- Conditions: CHO-hM4 cells, ACh EC80, Fluo-8 calcium fluorescence; at 3 µM; stronger effect = higher value
Among all 360,000 compounds or so, about 2,600 (0.72%) were called active. Only a selection was taken, and actives are over-represented in it overall.
Mark 1 for reported inhibition of 40% or greater; mark -1 for anything smaller.

Field: example entries. Status: answers known.
> print(dat)
                  compound.structure.string  assigned.class
1  O=[N+]([O-])/C=C/c1ccc2c(ccn2Cc2ccccc2)c1               1
2  Clc1ccc(-c2nnc(-c3ccccc3)nc2N2CCSCC2)cc1              -1
3  Cc1cc(=O)[nH]c(N/N=C/c2ccc3c(c2)OCCO3)n1              -1
4           Cc1ccc(OCCCC(=O)N2CCOCC2)c(C)c1              -1

Lookup: Identify whether the reported inhibition of the following compound is 40% or greater: Cc1ccc(C)c(N2CCN(C(=O)CCCCCn3c(=S)[nH]c4ccc(N5CCOCC5)cc4c3=O)CC2)c1
Found: -1
